tested on: M. tuberculosis clinical isolates; assay: microbe, parasite or virus in culture; assay type: cell-based; conditions: Mycobacterium tuberculosis, H37RV, read-out: MIC H37Rv
Structures can show the parent of a compound that is named as a salt.
reportedProperty: MIC

If you can, please state the reported MIC value of CN[C@@H]1[C@H](O)[C@H](NC)[C@H]2O[C@]3(O)[C@H](O[C@@H]2[C@H]1O)O[C@H](C)C[C@@]3(O)CNCc1ccc(C(F)(F)F)cc1 [compound 5, Trihydrochloride] .
25 µg/mL

Fill blank: measured MIC of the compound CN[C@@H]1[C@H](O)[C@H](NC)C2O[C@]3(O)C(OC2[C@H]1O)O[C@H](C)C[C@@]3(O)CNCc1cn(C)c2ccccc12 (some centres unmarked) [compound 37] is ____.
50 µg/mL

Param item = CN[C@@H]1[C@H](O)[C@H](NC)C2O[C@]3(O)C(OC2[C@H]1O)O[C@H](C)C[C@@]3(O)CNCc1ccc(CO)o1 (some centres unmarked) [compound 42] ; retrieve measured MIC.
25 µg/mL

Item CN[C@@H]1[C@H](O)[C@H](NC)C2O[C@]3(O)C(OC2[C@H]1O)O[C@H](C)C[C@@]3(O)CNCCC(C)c1ccccc1 (some centres unmarked) [compound 47] has what recorded MIC?
6.3 µg/mL

# input compound: CN[C@@H]1[C@H](O)[C@H](NC)[C@H]2O[C@]3(O)[C@H](O[C@@H]2[C@H]1O)O[C@H](C)C[C@@]3(O)CNCc1nc2ccccc2s1 [compound 34, Trihydrobromide] ; wanted: its MIC
12.5 µg/mL

* * *

test system: M. tuberculosis clinical isolates; assay: microbe, parasite or virus in culture; assay type: cell-based; conditions: Mycobacterium tuberculosis, H37RV, read-out: MIC H37Rv
Structures can show the parent of a compound that is named as a salt.
Listing of recorded MIC by entry.
Quick note: give the figure in µg/mL, leave out the unit.

compound: CN[C@@H]1[C@H](O)[C@H](NC)C2O[C@]3(O)C(OC2[C@H]1O)O[C@H](C)C[C@@]3(O)CNCc1ccc2ccn(C)c2c1 (stereo partly drawn)
unitDescriptor: µg/mL
MIC: 100

So what's the measured MIC for this one? CN[C@@H]1[C@H](O)[C@H](NC)[C@H]2O[C@]3(O)[C@H](O[C@@H]2[C@H]1O)O[C@H](C)C[C@@]3(O)CNCc1cccc(OC(F)(F)F)c1 [compound 25, Trihydrochloride]
200

So what does the record say about MIC for CN[C@@H]1[C@H](O)[C@H](NC)C2O[C@]3(O)C(OC2[C@H]1O)O[C@H](C)C[C@@]3(O)CNCc1ccc2c(c1)OCO2 (stereo partly drawn) ?
50

* * *

Counter-ions that a name gives are not always drawn.
The following compounds each carry a recorded MIC for Moraxella catarrhalis.
Enter your answer as a number in µg/mL; do not include the unit.

Please review the following examples before continuing.
compound: CN[C@@H]1[C@H](O)[C@H](NC)[C@H]2O[C@]3(O)[C@H](O[C@@H]2[C@H]1O)O[C@H](C)C[C@@]3(O)CNCCc1ccc(Cl)cc1 [compound 54, Trihydrobromide]
assayedTarget: Moraxella catarrhalis
MIC / µg/mL: 6.3
//
compound: CN[C@@H]1[C@H](O)[C@H](NC)[C@H]2O[C@]3(O)[C@H](O[C@@H]2[C@H]1O)O[C@H](C)C[C@@]3(O)CNCCc1ccc(OC(F)(F)F)cc1 [compound 57, Trihydrochloride]
assayedTarget: Moraxella catarrhalis
MIC / µg/mL: 0.8
//
compound: CN[C@@H]1[C@H](O)[C@H](NC)[C@H]2O[C@]3(O)[C@H](O[C@@H]2[C@H]1O)O[C@H](C)C[C@@]3(O)CNCCc1ccc(C)c(C)c1 [compound 55, Trihydrochloride]
assayedTarget: Moraxella catarrhalis
MIC / µg/mL: 3.1

Look at this compound and give its reported MIC. CN[C@@H]1[C@H](O)[C@H](NC)[C@H]2O[C@]3(O)[C@H](O[C@@H]2[C@H]1O)O[C@H](C)C[C@@]3(O)CNCc1ccc(Cl)cc1 [compound 18, Trihydrobromide]
0.8

* * *

test system: Staphylococcus aureus (ATCC 29213); test: MIC determination, microbroth dilution; assay type: cell-based; details: ATCC29213; Staphylococcus aureus (ATCC 29213); read-out: MIC S.a.
Structures can show the parent of a compound that is named as a salt.
reportedProperty: MIC

Known MIC results, listed for orientation:
compound: CN[C@@H]1[C@H](O)[C@H](NC)[C@H]2O[C@]3(O)[C@H](O[C@@H]2[C@H]1O)O[C@H](C)C[C@@]3(O)CNCc1ccncc1
MIC: ≥ 200 µg/mL

compound: CN[C@@H]1[C@H](O)[C@H](NC)[C@H]2O[C@]3(O)[C@H](O[C@@H]2[C@H]1O)O[C@H](C)C[C@]3(O)CNCc1ccc(OC(F)(F)F)cc1 (stereo in doubt) [compound 26, Trihydrochloride]
MIC: ≥ 200 µg/mL

Reported MIC for CN[C@@H]1[C@H](O)[C@H](NC)[C@H]2O[C@]3(O)[C@H](O[C@@H]2[C@H]1O)O[C@H](C)C[C@@]3(O)CNCc1nccs1 : what is it?
100 µg/mL

* * *

system: Bacillus anthracis, Sterne 34F2; test: microbe, parasite or virus in culture; assay type: cell-based; settings: STERNE34F2, read-out: MIC B.a.
Counter-ions that a name gives are not always drawn.
Listing of recorded MIC by entry.
# unit: µg/mL | format: bare number

Item CN[C@@H]1[C@H](O)[C@H](NC)[C@H]2O[C@]3(O)[C@H](O[C@@H]2[C@H]1O)O[C@H](C)C[C@@]3(O)CNCc1ccc(F)c(F)c1 [compound 12, Trihydrochloride] with Bacillus anthracis, Sterne 34F2 - MIC?
50

Item CN[C@@H]1[C@H](O)[C@H](NC)[C@H]2O[C@]3(O)[C@H](O[C@@H]2[C@H]1O)O[C@H](C)C[C@@]3(O)CNCCc1ccc(OC(F)(F)F)cc1 [compound 57, Trihydrochloride] with Bacillus anthracis, Sterne 34F2 - MIC?
25

Recorded MIC for CN[C@@H]1[C@H](O)[C@H](NC)[C@H]2O[C@]3(O)[C@H](O[C@@H]2[C@H]1O)O[C@H](C)C[C@@]3(O)CNc1ccc(F)cc1 [compound 31, Trihydrochloride] with Bacillus anthracis, Sterne 34F2, please?
200

Param readout = MIC; param system = Bacillus anthracis, Sterne 34F2; param query = CN[C@@H]1[C@H](O)[C@H](NC)[C@H]2O[C@]3(O)[C@H](O[C@@H]2[C@H]1O)O[C@H](C)C[C@@]3(O)CNCc1nccs1 ; response: value
100

API: value(readout= MIC, system= Bacillus anthracis, Sterne 34F2, query= CN[C@@H]1[C@H](O)[C@H](NC)[C@H]2O[C@@]3(O)C(=O)C[C@@H](C)O[C@H]3O[C@@H]2[C@H]1O [SPC, reference compound] )
25

* * *

Items are presented alongside their recorded MIC.
system: Staphylococcus aureus (ATCC 29213); assay: MIC determination, microbroth dilution; type: cell-based; details: ATCC29213; Staphylococcus aureus (ATCC 29213); read-out: MIC S.a.
Counter-ions that a name gives are not always drawn.
State just the number; it will be interpreted in µg/mL.

Which MIC value belongs to CN[C@@H]1[C@H](O)[C@H](NC)[C@H]2O[C@]3(O)[C@H](O[C@@H]2[C@H]1O)O[C@H](C)C[C@@]3(O)CNCCc1cccnc1 ?
100

Look up MIC for this molecule: CN[C@@H]1[C@H](O)[C@H](NC)C2O[C@]3(O)C(OC2[C@H]1O)O[C@H](C)C[C@@]3(O)CNCc1ccc2c(c1)OCO2 (stereo partly shown)
100

Quick one: MIC of CN[C@@H]1[C@H](O)[C@H](NC)[C@H]2O[C@]3(O)[C@H](O[C@@H]2[C@H]1O)O[C@H](C)C[C@@]3(O)CNCCc1ccc(OC(F)(F)F)cc1 [compound 57, Trihydrochloride] ?
25

Which MIC is listed for CN[C@@H]1[C@H](O)[C@H](NC)C2O[C@]3(O)C(OC2[C@H]1O)O[C@H](C)C[C@@]3(O)CNCCCc1ccco1 (stereo partly shown) ?
50

Entry CN[C@@H]1[C@H](O)[C@H](NC)[C@H]2O[C@]3(O)[C@H](O[C@@H]2[C@H]1O)O[C@H](C)C[C@@]3(O)CNCCc1ccc(C)c(C)c1 [compound 55, Trihydrochloride] has what MIC?
100

I would be grateful if you could share the reported MIC for CN[C@@H]1[C@H](O)[C@H](NC)[C@H]2O[C@]3(O)[C@H](O[C@@H]2[C@H]1O)O[C@H](C)C[C@@]3(O)CNCCc1ccc(C(F)(F)F)cc1 [compound 58, Trihydrochloride] .
12.5

* * *

tested on: M. tuberculosis clinical isolates; assay: microbe, parasite or virus in culture; assay type: cell-based; conditions: Mycobacterium tuberculosis, H37RV, read-out: MIC H37Rv
Counter-ions that a name gives are not always drawn.
Listed here are molecules together with their documented MIC.
# output: bare number, implied unit µg/mL

molecule: CN[C@@H]1[C@H](O)[C@H](NC)[C@H]2O[C@]3(O)[C@H](O[C@@H]2[C@H]1O)O[C@H](C)C[C@@]3(O)CNc1ccc(F)cc1 [compound 31, Trihydrochloride]
reportedProperty: MIC
measValue: 200

Looking for the measured MIC of CN[C@@H]1[C@H](O)[C@H](NC)[C@H]2O[C@]3(O)[C@H](O[C@@H]2[C@H]1O)O[C@H](C)C[C@@]3(O)CNCCc1ccc(C(F)(F)F)cc1 [compound 58, Trihydrochloride] , can you help?
3.1

Query: MIC; subject: CN[C@@H]1[C@H](O)[C@H](NC)C2O[C@]3(O)C(OC2[C@H]1O)O[C@H](C)C[C@@]3(O)CNCc1cccn1C (stereo partly shown)
200

Param item = CN[C@@H]1[C@H](O)[C@H](NC)[C@H]2O[C@]3(O)[C@H](O[C@@H]2[C@H]1O)O[C@H](C)C[C@@]3(O)CNCCN1CCOCC1 ; retrieve measured MIC.
25

What value of measured MIC is listed for CN[C@@H]1[C@H](O)[C@H](NC)[C@H]2O[C@]3(O)[C@H](O[C@@H]2[C@H]1O)O[C@H](C)C[C@@]3(O)CNCc1ccc(Cl)cc1 [compound 18, Trihydrobromide] ?
12.5
